# System: IGROV1 ovarian
# measurementNotes: NCI-60 one-dose screen, 48 h
# testConditions: 10 µM unless noted
Compounds without any hit were thinned out: in the full panel of roughly 83,000, 20% have a hit. The source made the active and inactive calls. How the source made its calls: active means growth percent below 10; inactive means the rest.
Pick from active, inactive when you respond.

# fetch the recorded call for Fc1ccc(-c2nnc(N3CCOCC3)c3ccccc23)cc1 here
inactive

# fetch the recorded call for C=C(C)C1CCC2(C(=O)O)CCC3(C)C(CCC4C5(C)CCC(O)C(C)(C)C5CCC43C)C12 (stereo not drawn) here
active

# fetch the recorded call for Fc1ccc2c(CN3CCO[C@H](COc4cccc(Cl)c4)C3)c[nH]c2c1 here
inactive

# fetch the recorded call for COc1ccc(-c2nnc(SCC(=O)Nc3ccc(C(=O)/C=C/c4ccc(Cl)cc4)cc3)n2-c2ccccc2)cc1 here
inactive

# fetch the recorded call for O=C1c2ccccc2C(=O)c2c1oc1ccc3ccccc3c21 here
inactive

# fetch the recorded call for CCCCC(CCc1ccccn1)C(=O)c1ccccc1 (stereo not drawn) here
inactive

# fetch the recorded call for CNC(=O)c1cc(Oc2ccc(NC(=O)c3[nH]c(SC)nc3-c3ccc(F)cc3)cc2)ccn1 here
inactive

# fetch the recorded call for COc1ccc(C2CC(c3cccc(Nc4ccnc5cc(Cl)ccc45)c3)=NN2c2ccc(Cl)cc2)cc1 (stereo not drawn) here
inactive

# fetch the recorded call for C/C(=N\NC(=S)Nc1ccccc1)c1ccccn1 here
inactive

# fetch the recorded call for C=CCn1c(SCC(=O)Nc2ccc(C(=O)/C=C/c3ccccc3)cc2)nnc1-c1ccc(OC)c(OC)c1 here
inactive

# fetch the recorded call for O=C(O)/C=C(\c1nc2ccc([N+](=O)[O-])cc2[nH]1)c1cc(Cl)ccc1O here
inactive

# fetch the recorded call for CCOc1cccc(/C=N/NC(=O)Cc2ccc(Nc3ccnc(C(F)(F)F)c3)cc2)c1O here
inactive

# fetch the recorded call for N#Cc1c(N)n(C2OC(CO)C(O)C2O)c2ncnc(N)c12 (stereo not drawn) here
active

---

Please go through the items and note down their growth.
# Test system: OVCAR-8 ovarian
# measurementNotes: NCI-60 one-dose screen, 48 h (100 = growth as untreated, 0 = no growth, -100 = all killed)
# testConditions: 10 µM unless noted
About 83,000 compounds went through this panel and 20% of them were active in at least one assay; those are over-represented in the sample as a whole.
# number only, unit % dropped from output

Record lookup: for OVCAR-8 ovarian, what growth belongs to COc1cc(C2CC(c3cccc(Nc4ccnc5cc(Cl)ccc45)c3)=NN2c2ccccc2)cc(OC)c1OC (centres undefined) ?
69.6

Record lookup: for OVCAR-8 ovarian, what growth belongs to CCCCCCCCCCCCCCCCCC1=NC(C)(C)CN1C(C)(C)CO ?
-80.4

Record lookup: for OVCAR-8 ovarian, what growth belongs to Fc1ccc(-c2nnc(N3CCOCC3)c3ccccc23)cc1 ?
111

Record lookup: for OVCAR-8 ovarian, what growth belongs to Cc1cccc(C(=O)O)n1 ?
74.4

Record lookup: for OVCAR-8 ovarian, what growth belongs to CC1C2CCC(C2)C1COCCOCCO (centres undefined) ?
102

Record lookup: for OVCAR-8 ovarian, what growth belongs to COc1cccc(Cn2c(-c3nonc3NC(C)=O)nc3ccccc32)c1 ?
50.9

Record lookup: for OVCAR-8 ovarian, what growth belongs to O=C1OCC2=C1C(c1cccc(Br)c1)c1cc3c(cc1N2CCO)OCCO3 (centres undefined) ?
9.03

Record lookup: for OVCAR-8 ovarian, what growth belongs to COc1cc(C2=NOC(c3cc(OC)c(OC)c(OC)c3)C2)ccc1OCCCCOc1cc2c(cc1OC)C(=O)N1CCC[C@H]1C=N2 (some centres undefined) ?
6.96

Record lookup: for OVCAR-8 ovarian, what growth belongs to c1ccc2c(c1)cnc1ccccc12 ?
97.5

Record lookup: for OVCAR-8 ovarian, what growth belongs to O=NN(CC(=O)NNc1ccccc1)CC(=O)NNc1ccccc1 ?
67.7

Record lookup: for OVCAR-8 ovarian, what growth belongs to O=C(CS)OCC(COC(=O)CS)(COC(=O)CS)COC(=O)CS ?
82.2

Record lookup: for OVCAR-8 ovarian, what growth belongs to CC(C)CC(NC(=O)OCC1c2ccccc2-c2ccccc21)C(=O)O (centres undefined) ?
122

Record lookup: for OVCAR-8 ovarian, what growth belongs to CC(=O)N1N=C(c2ccc(C)cc2)CC1c1cn(-c2ccccc2)nc1-c1cccc(Nc2ccnc3cc(Cl)ccc23)c1 (centres undefined) ?
46.4

Record lookup: for OVCAR-8 ovarian, what growth belongs to CN1CCN(Cc2ccc(NC(=O)c3cncc(C#Cc4ncc5cnccn45)c3)cc2C(F)(F)F)CC1 ?
70
